# assay.remarks: Amount of magnesium captured per 100 g of substance (X), ion-selective electrode method
# Assay type: physicochemical
Peptide text beside a SMILES is read from it.
# note: boundary value 9 g maps to -1; Amount of magnesium (g) captured per 100 g of substance (X) below it maps to 1

Ask: Hello, I'm reviewing records and need to know if Amount of magnesium (g) captured per 100 g of substance (X) of O=C[C@H](O)[C@@H](O)[C@H](O)[C@H](O)C(=O)O [Example X-11, Glucuronic acid] is below 9 g. Could you check?
Reply: -1

Ask: hey, is Amount of magnesium (g) captured per 100 g of substance (X) for O=C(O)CC(O)(CC(=O)O)C(=O)O [Example X-9, Citric acid] lower than 9 g or not?
Reply: -1

Ask: Decide: Amount of magnesium (g) captured per 100 g of substance (X) of O=C(O)CN(CCN(CC(=O)O)CC(=O)O)CC(=O)O [Example X-12, Ethylenediaminetetraacetic acid] strictly below 9 g?
Reply: -1

Ask: Decide: Amount of magnesium (g) captured per 100 g of substance (X) of NCC(=O)NCC(=O)O [Example X-6, Glycylglycine] (H-Gly-Gly-OH) strictly below 9 g?
Reply: 1

Ask: Is it true that Amount of magnesium (g) captured per 100 g of substance (X) reported for O=C(O)CNCC(=O)O [Example X-13, Iminodiacetic acid] is less than 9 g?
Reply: 1

Ask: Consider the compound CC(=O)CCC(=O)O [Example X-4, Levulinic acid] . Is its Amount of magnesium (g) captured per 100 g of substance (X) strictly less than 9 g?
Reply: 1

Ask: Please determine if O=P([O-])([O-])OP(=O)([O-])OP(=O)([O-])[O-].[Na+].[Na+].[Na+].[Na+].[Na+] [Example X-1, Pentasodium triphosphate] is below 9 g in terms of Amount of magnesium (g) captured per 100 g of substance (X).
Reply: 1

Ask: Take the compound CC(=O)CC(=O)c1ccccc1 [Example X-3, Benzoylacetone] and say whether its Amount of magnesium (g) captured per 100 g of substance (X) is less than 9 g.
Reply: 1

###

# assay.remarks: Amount of magnesium captured per 100 g of substance (X), ion-selective electrode method
# Format: physicochemical
Please provide measured Amount of magnesium (g) captured per 100 g of substance (X) for the entries that follow.
Report only the number, with the unit g understood.

Form field Amount of magnesium (g) captured per 100 g of substance (X), entry O.O.[Na+].[Na+].[O]=[W](=[O])([O-])[O-] [Example X-5, Sodium tungstate dihydrate] : 2

Recorded result, O=C(O)CC(O)C(=O)O (stereo not shown) , Amount of magnesium (g) captured per 100 g of substance (X): 15

// Amount of magnesium (g) captured per 100 g of substance (X) lookup, molecule = "N[C@@H](CCC(=O)O)C(=O)O" , result: 2

Notebook: "Nc1ncnc2c1ncn2[C@@H]1O[C@H](COP(=O)([O-])OP(=O)([O-])OP(=O)(O)O)[C@@H](O)[C@H]1O.O.O.O.[Na+].[Na+]" , Amount of magnesium (g) captured per 100 g of substance (X) read as 5

Field Amount of magnesium (g) captured per 100 g of substance (X) (entry "O=C(O)[C@H](O)[C@@H](O)[C@H](O)[C@H](O)CO" ) reads 30

Value of Amount of magnesium (g) captured per 100 g of substance (X) reported for the molecule "CC(=O)CC(C)=O" is 3

Record summary for "Oc1cccc2cccnc12" : reported Amount of magnesium (g) captured per 100 g of substance (X) = 2
